- ASSAY_SUMMARY: Pharmacokinetics of formulations after single subcutaneous bolus in Cynomolgus monkeys
- Assay type: in vivo
- CONDITION_INFO: cynomolgus monkey, plasma, sc, 0.5 mg/kg body weight

# MOLECULE, Tmax / min
rows = [
    ("CC(=O)N[C@@H](CCCNC(=N)N)C(=O)N[C@H]1CSSC[C@@H](C(N)=O)NC(=O)[C@H](Cc2c[nH]c3ccccc23)NC(=O)[C@H](CCCNC(=N)N)NC(=O)[C@@H](Cc2ccccc2)NC(=O)[C@H](Cc2c[nH]cn2)NC(=O)[C@@H](C)NC1=O [Peptide 1]", 30),
]

###

- STUDY_SYSTEM: MC3R (Homo sapiens, UniProt P41968)
- Construct: host or cells: CHO-K1 (ECL assay)
- Sequence (P41968 whole entry): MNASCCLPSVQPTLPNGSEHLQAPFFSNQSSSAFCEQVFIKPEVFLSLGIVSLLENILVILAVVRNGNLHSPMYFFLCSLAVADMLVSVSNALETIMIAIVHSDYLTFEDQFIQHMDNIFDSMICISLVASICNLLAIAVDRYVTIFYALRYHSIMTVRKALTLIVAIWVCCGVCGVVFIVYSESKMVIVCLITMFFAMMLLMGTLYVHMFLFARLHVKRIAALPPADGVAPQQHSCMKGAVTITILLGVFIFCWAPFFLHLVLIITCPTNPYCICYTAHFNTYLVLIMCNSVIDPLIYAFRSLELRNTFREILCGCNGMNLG
- ASSAY_SUMMARY: cAMP assay (EC50), MC3R
- Type: cell-based
- CONDITION_INFO: EC50(MC3R)/EC50(MC4R)
Bridge positions count the residues as written; N and C are the ends. Square brackets hold non-standard residues; d marks the D form. Peptide text beside a SMILES is read from it. hCys = N[C@@H](CCS)C(=O)O

# COMPOUND, Ratios of EC50 values MC3/4
records = [
    ("CC(=O)N[C@@H](CCCNC(=N)N)C(=O)N[C@H]1CSSC[C@@H](C(N)=O)NC(=O)[C@H](Cc2c[nH]c3ccccc23)NC(=O)[C@H](CCCNC(=N)N)NC(=O)[C@@H](Cc2ccccc2)NC(=O)[C@H](Cc2c[nH]cn2)NC(=O)[C@@H](C(C)(C)C)NC1=O [Compound 3]", 1),
    ("CC(=O)N[C@@H](CCCNC(=N)N)C(=O)N[C@H]1CSSC[C@@H](C(N)=O)NC(=O)[C@H](Cc2c[nH]c3ccccc23)NC(=O)[C@H](CCCNC(=N)N)NC(=O)[C@@H](Cc2ccccc2)NC(=O)[C@H](Cc2cn(C)cn2)NC(=O)[C@@H](C)NC1=O [Compound 6]", 6),
    ("CC(=O)N[C@@H](CCCNC(=N)N)C(=O)N[C@H]1CCSSC[C@@H](C(N)=O)NC(=O)[C@H](Cc2c[nH]c3ccccc23)NC(=O)[C@H](CCCNC(=N)N)NC(=O)[C@@H](Cc2ccccc2)NC(=O)[C@@H](C)NC1=O [Compound 16] (Ac-R[hCys][dA][dF]RWC-NH2; disulfide 2-7)", 420),
    ("CC(=O)N[C@@H](CCCNC(=N)N)C(=O)N[C@H]1CCSSC[C@@H](C(N)=O)NC(=O)[C@H](Cc2c[nH]c3ccccc23)NC(=O)[C@H](CCCNC(=N)N)NC(=O)[C@@H](Cc2ccccc2)NC(=O)[C@H](C)NC1=O [Compound 15] (Ac-R[hCys]A[dF]RWC-NH2; disulfide 2-7)", 3.8),
]

###

- ASSAY_SUMMARY: Pharmacokinetics of formulations after single subcutaneous bolus in Cynomolgus monkeys
- Assay type: in vivo
- CONDITION_INFO: cynomolgus monkey, plasma, sc, 0.5 mg/kg body weight
ASSAY_METRIC: Cmax (ng/mL)

# MOLECULE, DATA_VALUE
measured = [
    ("CC(=O)N[C@@H](CCCNC(=N)N)C(=O)N[C@H]1CSSC[C@@H](C(N)=O)NC(=O)[C@H](Cc2c[nH]c3ccccc23)NC(=O)[C@H](CCCNC(=N)N)NC(=O)[C@@H](Cc2ccccc2)NC(=O)[C@H](Cc2c[nH]cn2)NC(=O)[C@@H](C)NC1=O [Peptide 1]", 1100),
]

###

# Ratios of EC50 values MC5/4 listing for each entry below
- STUDY_SYSTEM: MC5R (Homo sapiens, UniProt P33032)
- Construct: host or cells: CHO-K1 (ECL assay)
- Sequence (P33032 whole entry): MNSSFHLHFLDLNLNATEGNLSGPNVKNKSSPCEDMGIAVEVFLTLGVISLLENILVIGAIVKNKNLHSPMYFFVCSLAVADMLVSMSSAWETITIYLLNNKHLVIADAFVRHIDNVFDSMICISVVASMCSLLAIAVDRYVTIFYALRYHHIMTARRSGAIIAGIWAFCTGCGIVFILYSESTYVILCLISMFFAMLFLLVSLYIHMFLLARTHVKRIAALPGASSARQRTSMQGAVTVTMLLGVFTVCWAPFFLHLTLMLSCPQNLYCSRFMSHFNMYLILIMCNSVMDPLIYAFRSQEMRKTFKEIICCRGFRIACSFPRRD
- ASSAY_SUMMARY: cAMP assay (EC50), MC5R
- Assay type: cell-based
- CONDITION_INFO: EC50(MC5R)/EC50(MC4R)
Bridge positions count the residues as written; N and C are the ends. Square brackets hold non-standard residues; d marks the D form. Peptide text beside a SMILES is read from it. dPhe(4-F) = N[C@H](Cc1ccc(F)cc1)C(=O)O; Pen = CC(C)(S)[C@H](N)C(=O)O; hCys = N[C@@H](CCS)C(=O)O

# MOLECULE, VALUE_RELATION_SIGN, Ratios of EC50 values MC5/4
records = [
    ("CC(=O)N[C@@H](CCCNC(=N)N)C(=O)N[C@H]1CSSC[C@@H](C(N)=O)NC(=O)[C@H](Cc2c[nH]c3ccccc23)NC(=O)[C@H](CCCNC(=N)N)NC(=O)[C@@H](Cc2ccc(F)cc2)NC(=O)[C@@H]2CCCN2C(=O)[C@@H](C)NC1=O [Compound 14] (Ac-RC[dA]P[dPhe(4-F)]RWC-NH2; disulfide 2-8)", "=", 12),
    ("CC(=O)N[C@@H](CCCNC(=N)N)C(=O)N[C@H]1CCSSC(C)(C)[C@@H](C(N)=O)NC(=O)[C@H](Cc2c[nH]c3ccccc23)NC(=O)[C@H](CCCNC(=N)N)NC(=O)[C@@H](Cc2ccccc2)NC(=O)[C@@H](C)NC1=O [Compound 17] (Ac-R[hCys][dA][dF]RW[Pen]-NH2; disulfide 2-7)", "=", 159),
    ("CC(=O)N[C@@H](CCCNC(=N)N)C(=O)N[C@H]1CSSC[C@@H](C(N)=O)NC(=O)[C@H](Cc2c[nH]c3ccccc23)NC(=O)[C@H](CCCNC(=N)N)NC(=O)[C@@H](Cc2ccccc2)NC(=O)[C@H](Cc2cn(C)cn2)NC(=O)[C@@H](C)NC1=O [Compound 6]", "=", 662),
    ("CC(=O)N[C@@H](CCCNC(=N)N)C(=O)N[C@H]1CSSC[C@@H](C(N)=O)NC(=O)[C@H](Cc2c[nH]c3ccccc23)NC(=O)[C@H](CCCNC(=N)N)NC(=O)[C@@H](Cc2ccccc2)NC(=O)[C@H](Cc2c[nH]c3ccccc23)NC(=O)[C@@H](C)NC1=O [Compound 7] (Ac-RC[dA]W[dF]RWC-NH2; disulfide 2-8)", "=", 7),
    ("CC(=O)N[C@@H](CCCNC(=N)N)C(=O)N[C@H]1CSSC[C@@H](C(N)=O)NC(=O)[C@H](Cc2c[nH]c3ccccc23)NC(=O)[C@H](CCCNC(=N)N)NC(=O)[C@@H](Cc2ccccc2)NC(=O)[C@H](Cc2c[nH]cn2)NC(=O)[C@@H](CC(C)C)NC1=O [Compound 1]", "=", 130),
    ("CC(=O)N[C@@H](CCC(=O)O)C(=O)N[C@H]1CSSC[C@@H](C(N)=O)NC(=O)[C@H](Cc2c[nH]c3ccccc23)NC(=O)[C@H](CCCNC(=N)N)NC(=O)[C@@H](Cc2ccccc2)NC(=O)[C@H](Cc2c[nH]cn2)NC(=O)[C@H](C)NC1=O [Compound 22] (Ac-ECAH[dF]RWC-NH2; disulfide 2-8)", ">", 2563),
    ("CC(=O)N[C@@H](CCCNC(=N)N)C(=O)N[C@H]1CCSSC[C@@H](C(N)=O)NC(=O)[C@H](Cc2c[nH]c3ccccc23)NC(=O)[C@H](CCCNC(=N)N)NC(=O)[C@@H](Cc2ccccc2)NC(=O)[C@H](C)NC1=O [Compound 15] (Ac-R[hCys]A[dF]RWC-NH2; disulfide 2-7)", "=", 161),
    ("CC(=O)N[C@@H](CCCNC(=N)N)C(=O)N[C@H]1CSSC[C@@H](C(N)=O)NC(=O)[C@H](Cc2c[nH]c3ccccc23)NC(=O)[C@H](CCCNC(=N)N)NC(=O)[C@@H](Cc2ccccc2)NC(=O)[C@H](Cc2cncn2C)NC(=O)[C@@H](C)NC1=O [Compound 5]", "=", 945),
    ("CC(=O)N[C@@H](CCCNC(=N)N)C(=O)N[C@H]1CSSC[C@@H](C(N)=O)NC(=O)[C@H](Cc2c[nH]c3ccccc23)NC(=O)[C@H](CCCNC(=N)N)NC(=O)[C@@H](Cc2ccccc2)NC(=O)[C@@H]2CCCN2C(=O)[C@@H](C)NC1=O [Compound 13] (Ac-RC[dA]P[dF]RWC-NH2; disulfide 2-8)", "=", 13),
    ("CC(=O)N[C@@H](CCCNC(=N)N)C(=O)N[C@H]1CSSC[C@@H](C(N)=O)NC(=O)[C@H](Cc2c[nH]c3ccccc23)NC(=O)[C@H](CCCNC(=N)N)NC(=O)[C@@H](Cc2ccccc2)NC(=O)[C@H](Cc2c[nH]cn2)NC(=O)[C@@H](C(C)(C)C)NC1=O [Compound 3]", "=", 930),
    ("CC(=O)N[C@@H](CCCNC(=N)N)C(=O)N[C@H]1CSSC[C@@H](C(N)=O)NC(=O)[C@H](Cc2c[nH]c3ccccc23)NC(=O)[C@H](CCCNC(=N)N)NC(=O)[C@@H](Cc2ccccc2)NC(=O)[C@H](Cc2c[nH]cn2)NC(=O)[C@@H](C(C)C)NC1=O [Compound 4]", "=", 584),
    ("CC(=O)N[C@@H](CCCNC(=N)N)C(=O)N[C@H]1CSSC[C@@H](C(N)=O)NC(=O)[C@H](Cc2c[nH]c3ccccc23)NC(=O)[C@H](CCCNC(=N)N)NC(=O)[C@@H](Cc2ccccc2)NC(=O)[C@H](CCC(N)=O)NC(=O)[C@@H](C)NC1=O [Compound 8] (Ac-RC[dA]Q[dF]RWC-NH2; disulfide 2-8)", "=", 155),
    ("CC[C@@H](C)[C@H]1NC(=O)[C@@H](NC(=O)[C@H](CCCNC(=N)N)NC(C)=O)CSSC[C@@H](C(N)=O)NC(=O)[C@H](Cc2c[nH]c3ccccc23)NC(=O)[C@H](CCCNC(=N)N)NC(=O)[C@@H](Cc2ccccc2)NC(=O)[C@H](Cc2c[nH]cn2)NC1=O [Compound 2]", "=", 420),
    ("CC(=O)N[C@@H](CCCNC(=N)N)C(=O)N[C@H]1CSSC[C@@H](C(N)=O)NC(=O)[C@H](Cc2c[nH]c3ccccc23)NC(=O)[C@H](CCCNC(=N)N)NC(=O)[C@@H](Cc2ccccc2)NC(=O)[C@H](CC(N)=O)NC(=O)[C@@H](C)NC1=O [Compound 9] (Ac-RC[dA]N[dF]RWC-NH2; disulfide 2-8)", "=", 530),
    ("CC(=O)N[C@@H](CCCNC(=N)N)C(=O)N[C@H]1CCSSC[C@@H](C(N)=O)NC(=O)[C@H](Cc2c[nH]c3ccccc23)NC(=O)[C@H](CCCNC(=N)N)NC(=O)[C@@H](Cc2ccccc2)NC(=O)[C@@H](C)NC1=O [Compound 16] (Ac-R[hCys][dA][dF]RWC-NH2; disulfide 2-7)", ">", 1338),
]
